Reference for the values: ChEMBL document CHEMBL1140971

system: Staphylococcus aureus; assay: Antibacterial activity against Staphylococcus aureus ATCC 11632 after 18 hrs by broth microdilution method; format: functional; conditions: ATCC 11632, 18 h
Attribute: MIC
// units = µg/mL; emit number, no label

| INPUT_SMILES | UNITS_OF_MEASURE | MIC |
| --- | --- | --- |
| O=C(NN=C(c1ccccc1)c1ccccc1)c1ccc(-n2cccc2)cc1 | µg/mL | 500 |
| O=C(N/N=C/c1ccccc1)c1ccc(-n2cccc2)cc1 | µg/mL | 250 |
| C/C(=N\NC(=O)c1ccc(-n2cccc2)cc1)c1ccccc1 | µg/mL | 250 |

Request body: readout MIC, system Staphylococcus aureus, query `Cc1ccc(C)n1NC(=O)c1ccc(-n2cccc2)cc1` . Return the value.
250

Also need `CC(C)=NNC(=O)c1ccc(-n2cccc2)cc1` , thanks.
250

* * *

system: Pseudomonas aeruginosa; test: Antibacterial activity against Pseudomonas aeruginosa ATCC 10145 after 18 hrs by broth microdilution method; assay type: functional; details: ATCC 10145, 18 h
PROPERTY_LABEL: MIC (µg/mL)
// units = µg/mL; emit number, no label

Answered cases to consult:
| COMPOUND | MIC (µg/mL) |
| --- | --- |
| CN(C)c1ccc(/C=N/NC(=O)c2ccc(-n3cccc3)cc2)cc1 | 125 |
| Nn1c(-c2ccc(-n3cccc3)cc2)n[nH]c1=S | 125 |
| CC(=O)N1N=C(c2ccc(-n3cccc3)cc2)OC1c1ccccc1 (stereo unspecified) | 62.5 |
| O=C(N/N=C/c1cccc([N+](=O)[O-])c1)c1ccc(-n2cccc2)cc1 | 62.5 |

Which MIC is listed for CC(=O)N1N=C(c2ccc(-n3cccc3)cc2)OC1c1c(Cl)cccc1Cl (stereo unspecified) ?
31.2

Also need `O=C(N/N=C/c1c(Cl)cccc1Cl)c1ccc(-n2cccc2)cc1` , thanks.
62.5

* * *

system: Enterococcus faecalis; assay: Antibacterial activity against Streptococcus faecalis ATCC 14506 after 18 hrs by broth microdilution method; type: functional; conditions: ATCC 14506, 18 h
PROPERTY_LABEL: MIC (µg/mL)
// units = µg/mL; emit number, no label

Answered cases to consult:
| COMPOUND | MIC, µg/mL |
| --- | --- |
| CC(=O)N1N=C(c2ccc(-n3cccc3)cc2)OC1c1ccccc1 (centres undefined) | 125 |
| O=C(N/N=C/c1c(Cl)cccc1Cl)c1ccc(-n2cccc2)cc1 | 125 |
| NNC(=O)c1ccc(-n2cccc2)cc1 | 31.2 |
| O=C(NN=C(c1ccccc1)c1ccccc1)c1ccc(-n2cccc2)cc1 | 250 |

Which MIC is listed for `O=C(N/N=C/c1ccc(O)cc1)c1ccc(-n2cccc2)cc1` ?
125

Also need CC(=O)N1N=C(c2ccc(-n3cccc3)cc2)OC1c1c(Cl)cccc1Cl (centres undefined) , thanks.
62.5

Also need `CC(=O)NNC(=O)c1ccc(-n2cccc2)cc1` , thanks.
250
